# Tested on: Caco-2 cells (clone C2BBel)
# Assay Comment: CACO-2 permeability
# Type: in vitro ADME
# Measurement Parameters: forward (A to B), donor pH 6.5, receiver pH 7.4
Endpoint: DM Caco2 A to B

[
  {
    "Smiles Text": "CC(C)OC(=O)[C@@H](NC(=O)OC[C@H]1O[C@@](C#N)(c2ccc3c(N)ncnn23)[C@H](O)[C@@H]1O)C(C)C",
    "Recorded Value": 0.115
  },
  {
    "Smiles Text": "COC(=O)c1cn(C(=O)OC[C@H]2O[C@@](C#N)(c3ccc4c(N)ncnn34)[C@H](O)[C@@H]2O)c2ccccc12",
    "Recorded Value": 0.69
  },
  {
    "Smiles Text": "CC(C)NC(=O)OC[C@H]1O[C@@](C#N)(c2ccc3c(N)ncnn23)[C@H](O)[C@@H]1O",
    "Recorded Value": 0.11
  },
  {
    "Smiles Text": "CC(C)[C@H](NC(=O)OC[C@H]1O[C@@](C#N)(c2ccc3c(N)ncnn23)[C@H](O)[C@@H]1O)C(=O)O",
    "Recorded Value": 0.05
  },
  {
    "Smiles Text": "N#C[C@@]1(c2ccc3c(N)ncnn23)O[C@H](COC(=O)N2CCCCCCC2)[C@@H](O)[C@H]1O",
    "Recorded Value": 0.47
  },
  {
    "Smiles Text": "CC(=O)O[C@H]1[C@@H](OC(C)=O)[C@](C#N)(c2ccc3c(N)ncnn23)O[C@@H]1COC(=O)N1CCCCC1",
    "Recorded Value": 3.99
  },
  {
    "Smiles Text": "N#C[C@@]1(c2ccc3c(N)ncnn23)O[C@H](COC(=O)N2CCS(=O)(=O)CC2)[C@@H](O)[C@H]1O",
    "Recorded Value": 0.08
  }
]

----------
# Assay Comment: in vitro
# Assay type: cell-based
# Measurement Parameters: human

[
  {
    "Compound": "CC(C)OC(=O)[C@@H](NC(=O)OC[C@H]1O[C@@](C#N)(c2ccc3c(N)ncnn23)[C@H](O)[C@@H]1O)C(C)C [Compound 7]",
    "CC50": "> 50 µM"
  },
  {
    "Compound": "N#C[C@@]1(c2ccc3c(N)ncnn23)O[C@H](COC(=O)n2cc(C(=O)OC3CCOCC3)c3ccccc32)[C@@H](O)[C@H]1O [Compound 2]",
    "CC50": "> 50 µM"
  },
  {
    "Compound": "N#C[C@@]1(c2ccc3c(N)ncnn23)O[C@H](COC(=O)N2C(=O)OC[C@@H]2Cc2ccccc2)[C@@H](O)[C@H]1O [Compound 4]",
    "CC50": "> 50 µM"
  }
]

----------
# Type: in vitro ADME
# Measurement Parameters: 2 μM

[
  {
    "Smiles Text": "N#C[C@@]1(c2ccc3c(N)ncnn23)O[C@H](COC(=O)N2CCCO2)[C@@H](O)[C@H]1O",
    "STA Human Plasma 37": 938.47
  },
  {
    "Smiles Text": "CC(C)(C)SC(=O)OC[C@H]1O[C@@](C#N)(c2ccc3c(N)ncnn23)[C@H](O)[C@@H]1O",
    "STA Human Plasma 37": 1343.5
  },
  {
    "Smiles Text": "CC(C)OC(=O)[C@@H](NC(=O)OC[C@H]1O[C@@](C#N)(c2ccc3c(N)ncnn23)[C@H](O)[C@@H]1O)C(C)C",
    "STA Human Plasma 37": 1303.4
  },
  {
    "Smiles Text": "COC(=O)c1cn(C(=O)OC[C@H]2O[C@@](C#N)(c3ccc4c(N)ncnn34)[C@H](O)[C@@H]2O)c2ccccc12",
    "STA Human Plasma 37": 645.34
  }
]

----------
# System: Caco-2 cells (clone C2BBel)
# Assay Comment: CACO-2 permeability
# Format: in vitro ADME
# Measurement Parameters: forward (A to B), donor pH 6.5, receiver pH 7.4
# Procedure: Pre-plated Caco-2 cells (clone C2BBel) were obtained from Sigma-Aldrich, Inc. (Atlanta, GA). Cell monolayers were grown to confluence on collagen-coated, microporous, polycarbonate membranes in 24-well transwell plates for 21 days. […] After an initial equilibration with transport buffer, TEER values were read to test membrane integrity. […] Formation of the parent compound (GS-441524; Reference Compound A) was monitored in assay wells dosed with the prodrug. Samples were analyzed by LC-MS/MS.
Entries and their measured DM Caco2 A to B follow.
Endpoint: DM Caco2 A to B

[
  {
    "Compound": "N#C[C@@]1(c2ccc3c(N)ncnn23)O[C@H](COC(=O)N2CCCO2)[C@@H](O)[C@H]1O [Compound 12]",
    "Recorded Value": 0.08
  },
  {
    "Compound": "CCOC(=O)c1cccn1C(=O)OC[C@H]1O[C@@](C#N)(c2ccc3c(N)ncnn23)[C@H](OC(C)=O)[C@@H]1OC(C)=O [Compound 20]",
    "Recorded Value": 3.16
  },
  {
    "Compound": "COC(=O)[C@H]1COC(=O)N1C(=O)OC[C@H]1O[C@@](C#N)(c2ccc3c(N)ncnn23)[C@H](O)[C@@H]1O [Compound 5]",
    "Recorded Value": 0.04
  },
  {
    "Compound": "CC(C)(C)SC(=O)OC[C@H]1O[C@@](C#N)(c2ccc3c(N)ncnn23)[C@H](O)[C@@H]1O [Compound 17]",
    "Recorded Value": 3.05
  },
  {
    "Compound": "CCCSC(=O)OC[C@H]1O[C@@](C#N)(c2ccc3c(N)ncnn23)[C@H](O)[C@@H]1O [Compound 14]",
    "Recorded Value": 2.06
  },
  {
    "Compound": "N#C[C@@]1(c2ccc3c(N)ncnn23)O[C@H](COC(=O)N2C(=O)OC[C@@H]2Cc2ccccc2)[C@@H](O)[C@H]1O [Compound 4]",
    "Recorded Value": 0.12
  },
  {
    "Compound": "CCOC(=O)c1cccn1C(=O)OC[C@H]1O[C@@](C#N)(c2ccc3c(N)ncnn23)[C@H](O)[C@@H]1O [Compound 10]",
    "Recorded Value": 0.22
  },
  {
    "Compound": "CCSC(=O)OC[C@H]1O[C@@](C#N)(c2ccc3c(N)ncnn23)[C@H](O)[C@@H]1O [Compound 15]",
    "Recorded Value": 1.51
  },
  {
    "Compound": "N#C[C@@]1(c2ccc3c(N)ncnn23)O[C@H](COC(=O)N2CCCCC2)[C@@H](O)[C@H]1O [Compound 13]",
    "Recorded Value": 0.3
  },
  {
    "Compound": "CC(=O)O[C@H]1[C@@H](OC(C)=O)[C@](C#N)(c2ccc3c(N)ncnn23)O[C@@H]1COC(=O)NC(C)C [Compound 18]",
    "Recorded Value": 0.8
  },
  {
    "Compound": "CC(=O)O[C@H]1[C@@H](OC(C)=O)[C@](C#N)(c2ccc3c(N)ncnn23)O[C@@H]1COC(=O)N1CCCCCCC1 [Compound 19]",
    "Recorded Value": 6.33
  },
  {
    "Compound": "N#C[C@@]1(c2ccc3c(N)ncnn23)O[C@H](COC(=O)n2cc(C(=O)OC3CCOCC3)c3ccccc32)[C@@H](O)[C@H]1O [Compound 2]",
    "Recorded Value": 0.33
  }
]

----------
# Assay Comment: in vitro
# Format: cell-based
# Measurement Parameters: human

[
  {
    "Compound": "N#C[C@@]1(c2ccc3c(N)ncnn23)O[C@H](COC(=O)SC2CCCC2)[C@@H](O)[C@H]1O [Compound 16]",
    "Lt Gt Eq": "=",
    "CC50 [µM]": 49.9
  },
  {
    "Compound": "CCCSC(=O)OC[C@H]1O[C@@](C#N)(c2ccc3c(N)ncnn23)[C@H](O)[C@@H]1O [Compound 14]",
    "Lt Gt Eq": ">",
    "CC50 [µM]": 50
  },
  {
    "Compound": "CC(=O)O[C@H]1[C@@H](OC(C)=O)[C@](C#N)(c2ccc3c(N)ncnn23)O[C@@H]1COC(=O)SC1CCCC1 [Compound 25]",
    "Lt Gt Eq": "=",
    "CC50 [µM]": 32.5
  }
]

----------
# Assay Comment: in vitro
# Assay type: in vitro ADME
# Measurement Parameters: human, s9, pH 7.4
Response field label: string, one of condition met (half-life at 2 μM strictly below 7 h) or condition not met.

[
  {
    "Smiles Text": "N#C[C@@]1(c2ccc3c(N)ncnn23)O[C@H](COC(=O)N2CCCCCCC2)[C@@H](O)[C@H]1O",
    "Assigned Class": "condition met"
  },
  {
    "Smiles Text": "CC(C)[C@H](NC(=O)OC[C@H]1O[C@@](C#N)(c2ccc3c(N)ncnn23)[C@H](O)[C@@H]1O)C(=O)O",
    "Assigned Class": "condition not met"
  },
  {
    "Smiles Text": "CC(=O)O[C@H]1[C@@H](OC(C)=O)[C@](C#N)(c2ccc3c(N)ncnn23)O[C@@H]1COC(=O)N1CCCCC1",
    "Assigned Class": "condition met"
  },
  {
    "Smiles Text": "CC(=O)O[C@H]1[C@@H](OC(C)=O)[C@](C#N)(c2ccc3c(N)ncnn23)O[C@@H]1COC(=O)SC1CCCC1",
    "Assigned Class": "condition met"
  },
  {
    "Smiles Text": "N#C[C@@]1(c2ccc3c(N)ncnn23)O[C@H](COC(=O)N2CCCO2)[C@@H](O)[C@H]1O",
    "Assigned Class": "condition met"
  },
  {
    "Smiles Text": "CC(C)NC(=O)OC[C@H]1O[C@@](C#N)(c2ccc3c(N)ncnn23)[C@H](O)[C@@H]1O",
    "Assigned Class": "condition not met"
  },
  {
    "Smiles Text": "CCSC(=O)OC[C@H]1O[C@@](C#N)(c2ccc3c(N)ncnn23)[C@H](OC(C)=O)[C@@H]1OC(C)=O",
    "Assigned Class": "condition met"
  }
]
